Measured EC50 by item
Target: CDK3/Cyclin E2 (Homo sapiens, UniProt Q00526)
Construct: Full-length kinases were obtained as plasmids cloned in frame with a terminal NanoLuc-fusion; CCNE2: 'Promega', no number
Sequence (Q00526 whole entry, the tested form may be a part): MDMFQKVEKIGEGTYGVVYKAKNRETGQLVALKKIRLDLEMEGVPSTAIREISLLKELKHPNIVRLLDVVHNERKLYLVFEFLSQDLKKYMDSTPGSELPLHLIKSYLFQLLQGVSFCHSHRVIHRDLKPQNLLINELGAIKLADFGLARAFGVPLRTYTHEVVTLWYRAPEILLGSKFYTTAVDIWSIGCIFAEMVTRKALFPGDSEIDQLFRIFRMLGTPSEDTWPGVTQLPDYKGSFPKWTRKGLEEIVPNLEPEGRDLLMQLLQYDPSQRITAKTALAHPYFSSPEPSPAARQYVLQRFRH
Sequence (O96020 whole entry partner, the tested form may be a part): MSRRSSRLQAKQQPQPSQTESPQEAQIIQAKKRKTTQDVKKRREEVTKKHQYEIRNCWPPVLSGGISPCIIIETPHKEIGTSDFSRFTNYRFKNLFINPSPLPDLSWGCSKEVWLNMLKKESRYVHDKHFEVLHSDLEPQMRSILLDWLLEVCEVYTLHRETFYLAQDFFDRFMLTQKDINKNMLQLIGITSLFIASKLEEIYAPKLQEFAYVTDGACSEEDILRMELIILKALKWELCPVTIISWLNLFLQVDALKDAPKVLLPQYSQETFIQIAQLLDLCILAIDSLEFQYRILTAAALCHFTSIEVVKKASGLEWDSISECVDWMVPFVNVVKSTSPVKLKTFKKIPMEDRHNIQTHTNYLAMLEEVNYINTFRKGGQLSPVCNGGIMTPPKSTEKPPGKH
Assay: NanoBRET
Conditions: read-out: NanoBRET EC50 ± SEM CDK3/Cyclin E2
Reply numerically in µM, unit not repeated.

INSERT INTO measurements (molecule, result) VALUES
  ('N#CCc1ccc(Nc2nccc(Nc3cc(C4CC4)[nH]n3)n2)cc1 [compound 1, reference compound]', 0.0384),
  ('CC(C)(C)OC(=O)Nc1ccc(CNc2nccc(Nc3cc(C(=O)OC(C)(C)C)[nH]n3)n2)cc1 [43d]', 16.1),
  ('COC(=O)c1cc(Nc2ccnc(NCc3ccc(NC(=O)OC(C)(C)C)cc3)n2)[nH]n1 [21i]', 38.8);

Now for the molecule whose EC50 we want.
Prompt: Data request, read-out EC50, for CC(C)OC(=O)c1cc(Nc2ccnc(NCc3ccc(NC(=O)OC(C)(C)C)cc3)n2)n[nH]1 [42d]
Completion: 26.9
